Tgt: Glucocorticoid receptor (Homo sapiens)
Sequence (P04150 whole entry): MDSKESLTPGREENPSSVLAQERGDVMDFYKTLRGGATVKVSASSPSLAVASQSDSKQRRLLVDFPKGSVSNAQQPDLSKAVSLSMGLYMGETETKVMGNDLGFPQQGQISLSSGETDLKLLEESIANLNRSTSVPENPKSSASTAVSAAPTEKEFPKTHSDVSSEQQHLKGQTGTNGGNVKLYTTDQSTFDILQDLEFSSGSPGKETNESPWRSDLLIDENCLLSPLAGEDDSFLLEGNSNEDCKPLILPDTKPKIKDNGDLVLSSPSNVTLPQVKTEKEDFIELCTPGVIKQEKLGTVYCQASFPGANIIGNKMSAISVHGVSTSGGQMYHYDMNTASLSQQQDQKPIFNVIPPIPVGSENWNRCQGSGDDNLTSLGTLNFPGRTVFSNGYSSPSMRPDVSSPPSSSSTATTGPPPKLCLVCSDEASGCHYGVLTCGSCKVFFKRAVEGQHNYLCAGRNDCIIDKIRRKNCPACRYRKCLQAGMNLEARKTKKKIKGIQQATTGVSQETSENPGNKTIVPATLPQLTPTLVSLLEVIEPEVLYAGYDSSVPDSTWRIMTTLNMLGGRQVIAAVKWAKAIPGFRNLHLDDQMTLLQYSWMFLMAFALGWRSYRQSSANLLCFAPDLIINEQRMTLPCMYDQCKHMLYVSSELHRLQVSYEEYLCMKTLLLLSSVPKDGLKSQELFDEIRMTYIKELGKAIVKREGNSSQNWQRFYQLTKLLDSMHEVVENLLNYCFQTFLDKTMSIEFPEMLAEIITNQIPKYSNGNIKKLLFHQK
Assay type: functional
AC50 by entry:
Attribute measured: AC50

>  <Compound>
CC(C)/N=c1\cc2n(-c3ccc(Cl)cc3)c3ccccc3nc-2cc1Nc1ccc(Cl)cc1 [CLOFAZIMINE]

>  <Attribute measured>
AC50

>  <Observed value>
> 30 µM

$$$$
>  <Compound>
C[C@H](Nc1ncnc2[nH]cnc12)c1cc2cccc(Cl)c2c(=O)n1-c1ccccc1 [DUVELISIB]

>  <Attribute measured>
AC50

>  <Observed value>
> 30 µM

$$$$
>  <Compound>
CO[C@@H]1[C@@H](OC(N)=O)[C@@H](O)[C@H](Oc2ccc3c(O)c(NC(=O)c4ccc(O)c(CC=C(C)C)c4)c(=O)oc3c2C)OC1(C)C [NOVOBIOCIN]

>  <Attribute measured>
AC50

>  <Observed value>
> 30 µM

$$$$
